# test method notes: Estimated unbound maximum hepatic inlet concentration used for the static model
# conditions: human, hepatic inlet (unbound), inhaled or intranasal, 19 mg

[
  {
    "compound": "C=C(C)[C@@H]1CCC(C)=C[C@H]1c1c(O)cc(CCCCC)cc1O [CBD, cannabidiol, reference compound]",
    "Cmax [nM]": 350
  }
]

====

# target of assay: UGT2B7 (Homo sapiens, UniProt P16662)
# Sequence (P16662 24-529): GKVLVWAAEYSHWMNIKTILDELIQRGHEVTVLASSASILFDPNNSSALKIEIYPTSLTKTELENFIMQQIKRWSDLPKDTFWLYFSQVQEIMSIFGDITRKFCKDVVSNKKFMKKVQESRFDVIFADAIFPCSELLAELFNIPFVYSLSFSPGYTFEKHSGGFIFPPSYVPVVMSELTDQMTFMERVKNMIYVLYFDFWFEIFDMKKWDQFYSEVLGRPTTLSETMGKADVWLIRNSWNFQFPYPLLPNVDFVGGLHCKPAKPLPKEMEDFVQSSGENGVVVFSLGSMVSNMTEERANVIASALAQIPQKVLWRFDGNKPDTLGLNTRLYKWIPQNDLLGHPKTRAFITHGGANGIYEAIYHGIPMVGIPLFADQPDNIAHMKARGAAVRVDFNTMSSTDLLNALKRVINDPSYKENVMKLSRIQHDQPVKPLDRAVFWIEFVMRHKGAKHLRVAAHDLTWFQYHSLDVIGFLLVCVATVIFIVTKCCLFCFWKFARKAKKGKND
# test method notes: in vitro
# conditions: human liver microsomes, probe morphine […] (morphine-6-glucuronide formation)

[
  {
    "molecule": "C=C(C)[C@@H]1CCC(C)=C[C@H]1c1c(O)cc(CCCCC)cc1O [CBD, cannabidiol, reference compound]",
    "readout unit": "µM",
    "IC50": 6.3
  }
]
